target: Programmed cell death protein 1/Programmed cell death 1 ligand 1 (Homo sapiens, UniProt Q15116+Q9NZQ7); assay: Inhibition of PD1/PDL1 (unknown origin) interaction by HTRF assay; assay type: protein-complex assay
Sequence (Q15116 whole entry, one chain of several): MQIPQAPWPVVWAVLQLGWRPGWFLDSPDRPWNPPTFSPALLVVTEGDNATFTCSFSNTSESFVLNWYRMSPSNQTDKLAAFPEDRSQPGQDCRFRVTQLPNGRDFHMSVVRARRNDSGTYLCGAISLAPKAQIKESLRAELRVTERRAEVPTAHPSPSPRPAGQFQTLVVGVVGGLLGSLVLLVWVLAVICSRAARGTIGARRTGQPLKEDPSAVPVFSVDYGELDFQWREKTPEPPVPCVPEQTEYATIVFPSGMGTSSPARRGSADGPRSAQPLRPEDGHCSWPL
experimentalEndpoint: IC50 (nM)
Report the value in nM with no unit label.

Quick note, IC50 for Cc1c(/C=C/c2ncc(CNC(CO)C(=O)O)cc2C(F)(F)F)cccc1-c1ccc2c(c1)OCCO2 (stereo unspecified) landed at 36

---

molecular target: Programmed cell death 1 ligand 1 (Mus musculus) (UniProt Q9EP73); assay: Inhibition of PDL1 in C57BL6 mouse splenocytes assessed as protection against ant-CD3/CD28-stimulated cell proliferation at 100 nM after 4 hrs by CFSE-based FACS analysis relative to control
Sequence (Q9EP73 whole entry): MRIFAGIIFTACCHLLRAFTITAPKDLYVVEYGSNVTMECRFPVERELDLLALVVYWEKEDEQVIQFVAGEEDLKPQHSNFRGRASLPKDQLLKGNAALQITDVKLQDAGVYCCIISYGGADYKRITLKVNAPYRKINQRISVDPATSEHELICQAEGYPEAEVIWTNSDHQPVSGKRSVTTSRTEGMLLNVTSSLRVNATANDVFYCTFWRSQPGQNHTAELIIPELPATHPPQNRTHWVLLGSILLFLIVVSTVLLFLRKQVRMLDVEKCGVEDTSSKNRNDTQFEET
experimentalEndpoint: inhibition (%)
Report the value in % with no unit label.

COCCNC(=O)CC[C@H](NS(=O)(=O)C1CC1)c1nnc(-c2ccccc2OC)o1	97

Quick note, inhibition for C[C@@H](O)C(NC(=O)[C@H](CCC(=O)O)NC(=O)[C@@H](N)CO)C(=O)N[C@H](CO)C(=O)N[C@H](CCCCN)C(=O)N[C@H](CO)CN[C@H](Cc1ccccc1)C(N)=O (single isomer, unassigned) landed at 81

Quick note, inhibition for C[C@@H](O)[C@H](N)c1noc([C@H](Cc2ccc(O)cc2)NC(=O)N2CCC[C@H]2C(=O)O)n1 landed at 99

---

molecular target: Programmed cell death 1 ligand 1 (Mus musculus); test: Inhibition of PDL1 in C57BL6 mouse splenocytes assessed as protection against ant-CD3/CD28-stimulated cell proliferation at 100 nM after 4 hrs by CFSE-based FACS analysis relative to control
Decision: inhibition >= 90% yields class 1, all other cases yield class 0.

The examples below pair each entry with its known result.
C[C@@H](O)[C@@H]1NC(=O)COCCOCCNC(=O)[C@@H](CO)NC(=O)N[C@H](C(N)=O)C(=O)NNC1=O	class 1
C[C@@H](O)[C@@H](NC(=O)N[C@@H](CC(N)=O)c1nc([C@@H](N)CO)no1)C(=O)O	class 1

Please check the record C[C@@H](O)[C@@H]1NC(=O)N[C@@H](C(N)=O)C(=O)NNC(=O)[C@@H](CO)NC(=O)COCCOCCNC1=O and state if its inhibition is at or above 90%. class 1

Please check the record NCCCC[C@H](NC(=O)N[C@@H](CC(N)=O)C(=O)NNC(=O)[C@@H](N)CO)C(=O)O and state if its inhibition is at or above 90%. class 0

Please check the record C[C@@H](O)[C@@H]1C(=O)N[C@H](CO)C(=O)N[C@H](C(=O)N[C@@H](CO)C(=O)N[C@@H](Cc2ccccc2)C(N)=O)CCCCNC(=O)CC[C@H](NC(=O)[C@@H](N)CO)C(=O)N1C and state if its inhibition is at or above 90%. class 0

---

biological target: Programmed cell death 1 ligand 1 (Homo sapiens); experiment: Binding affinity to Fc-labeled human PDL1 expressed in Escherichia coli by SPR spectroscopy
Sequence (Q9NZQ7 whole entry): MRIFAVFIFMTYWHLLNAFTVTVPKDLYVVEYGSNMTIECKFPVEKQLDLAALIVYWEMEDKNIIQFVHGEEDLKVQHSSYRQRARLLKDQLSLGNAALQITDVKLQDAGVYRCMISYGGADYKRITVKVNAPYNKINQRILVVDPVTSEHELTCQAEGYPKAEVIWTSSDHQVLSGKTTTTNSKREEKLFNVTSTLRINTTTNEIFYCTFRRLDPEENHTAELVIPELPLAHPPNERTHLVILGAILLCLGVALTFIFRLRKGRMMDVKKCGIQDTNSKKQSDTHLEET
experimentalEndpoint: pKd
Just the number, please; pKd means minus log10 of the concentration in mol/L.

H-MRNRERYPKPYY-OH	4.66

Quick note, pKd for H-KHAHHTHNLRLP-OH landed at 5.95
